# assayed_system: Full length DGKα (D21-10BG, SignalChem) (Homo sapiens, UniProt P23743)
# Sequence (P23743 whole entry): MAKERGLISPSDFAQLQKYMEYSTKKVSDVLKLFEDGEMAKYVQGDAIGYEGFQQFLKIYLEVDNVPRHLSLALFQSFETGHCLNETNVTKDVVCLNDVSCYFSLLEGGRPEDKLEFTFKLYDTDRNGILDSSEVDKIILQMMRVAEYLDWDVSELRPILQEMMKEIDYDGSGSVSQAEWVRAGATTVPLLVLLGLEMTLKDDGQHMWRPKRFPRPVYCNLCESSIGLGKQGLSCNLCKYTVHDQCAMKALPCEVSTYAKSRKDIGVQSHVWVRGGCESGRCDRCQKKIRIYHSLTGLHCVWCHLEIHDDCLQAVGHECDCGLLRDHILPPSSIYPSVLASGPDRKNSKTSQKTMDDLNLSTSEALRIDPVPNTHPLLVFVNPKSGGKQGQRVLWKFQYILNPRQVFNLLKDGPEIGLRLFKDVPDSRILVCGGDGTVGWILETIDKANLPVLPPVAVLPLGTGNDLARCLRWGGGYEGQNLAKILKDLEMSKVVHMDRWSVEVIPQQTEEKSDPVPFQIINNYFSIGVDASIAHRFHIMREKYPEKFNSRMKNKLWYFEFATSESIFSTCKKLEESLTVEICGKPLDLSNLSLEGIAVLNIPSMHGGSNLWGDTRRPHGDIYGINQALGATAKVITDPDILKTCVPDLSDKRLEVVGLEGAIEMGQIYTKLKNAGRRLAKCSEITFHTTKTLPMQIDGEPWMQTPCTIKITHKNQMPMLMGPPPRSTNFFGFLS
pIC50 values, listed per item
pIC50 field: float, defined as -log10 of concentration (mol/L).

Solved entries (count: 8):
[
  {
    "molecule": "CCn1c(CC#N)nc2c(N3C[C@@H](C)N(C(C)c4cc5c(cc4F)OC(C)(C)CO5)C[C@@H]3C)nc(=O)n(C)c21 (single isomer, unassigned) [Compound A156b]",
    "pIC50": 4.85
  },
  {
    "molecule": "CC(c1cc(F)c2c(c1)OC(C)(C)CO2)N1C[C@H](C)N(c2nc(=O)n(C)c3c2nc(CC#N)n3C)C[C@H]1C (single isomer, unassigned) [Compound A68a]",
    "pIC50": 4.69
  },
  {
    "molecule": "CC[C@H]1CN(C(C)c2ccc3ncc(C)nc3c2)[C@H](CC)CN1c1nc(=O)n(C)c2c1nc(CC#N)n2C (single isomer, unassigned) [Compound A51b]",
    "pIC50": 4.65
  },
  {
    "molecule": "COC(C)c1cc(F)ccc1C(C)N1C[C@H](C)N(c2nc(=O)n(C)c3c2nc(CC#N)n3C)C[C@H]1C (some centres unmarked)",
    "pIC50": 4.01
  },
  {
    "molecule": "CCn1c(CC#N)nc2c(N3C[C@@H](C)N(C(C)c4cccc(C(C)C)n4)C[C@@H]3C)nc(=O)n(C)c21 (some centres unmarked)",
    "pIC50": 3.89
  },
  {
    "molecule": "CC[C@H]1CN(C(C)c2ccc3ncc(C)nc3c2)[C@H](CC)CN1c1nc(=O)n(C)c2c1nc(CC#N)n2C (single isomer, unassigned) [Compound A51a]",
    "pIC50": 4.85
  },
  {
    "molecule": "COc1cc(F)ccc1C(C)N1C[C@H](C)N(c2c(F)c(=O)n(C)c3c2nc(CC#N)n3C)C[C@H]1C (some centres unmarked)",
    "pIC50": 4.24
  },
  {
    "molecule": "CCn1c(CC#N)nc2c(N3C[C@@H](C)N(C(C)c4cc(Cl)c5c(c4)OC(C)(C)O5)C[C@@H]3C)nc(=O)n(C)c21 (some centres unmarked)",
    "pIC50": 4.18
  }
]

molecule CCc1nc2cc(C(C)N3C[C@H](C)N(c4nc(=O)n(C)c5c4nc(CC#N)n5CC)C[C@H]3C)ccc2s1 (single isomer, unassigned) [Compound A95a] , pIC50 observed: 4.61

molecule CC[C@@H]1CN(c2nc(=O)n(C)c3c2nc(CC#N)n3C)[C@@H](C)CN1C(C)c1ccc2c(n1)OC(C)(C)CO2 (single isomer, unassigned) [Compound A159b] , pIC50 observed: 4.20

molecule CCn1c(CC#N)nc2c(N3C[C@@H](C)N(C(C)c4ccc5c(=O)cc(C)oc5c4)C[C@@H]3C)nc(=O)n(C)c21 (some centres unmarked) , pIC50 observed: 4.39

molecule CCn1c(CC#N)nc2c(N3C[C@@H](C)N(C(C)c4cccc(C(F)(F)F)c4)C[C@@H]3C)nc(=O)n(C)c21 (mixture of isomers) [Compound A42] , pIC50 observed: 4.21

molecule CCn1c(CC#N)nc2c(N3C[C@@H](C)N(C(C)c4ccc5c(c4F)OC(C)(C)O5)C[C@@H]3C)c(F)c(=O)n(C)c21 (mixture of isomers) [Compound A190] , pIC50 observed: 3.97
